Values compiled from patent US5041426A.

Measured % Natural Killer Cell Cytotoxicity accompanies every entry in the list below.
test system: K562 tumor cells; assay: In vitro augmentation of human natural killer cell activity (PBMNC, 51Cr release); assay type: cell-based; conditions: Table 22; 0.2 mM
Where a name gives a salt, the structure may show the parent alone.
Value expressed in %; do not type the unit.

Known % Natural Killer Cell Cytotoxicity results, listed for orientation:
compound	% Natural Killer Cell Cytotoxicity, %
Nc1nc2c(sc(=O)n2[C@@H]2O[C@H](CO)[C@@H](O)[C@H]2O)c(=O)[nH]1 [Compound 7]	10
Nc1nc2c(sc(=O)n2[C@@H]2O[C@@H]3COP(=O)(O)O[C@H]3[C@H]2O)c(=O)[nH]1 [Compound 12, Monophosphate Ammonium Salt]	43
Nc1nc2c(sc(=O)n2[C@@H]2O[C@H](CO)[C@@H](O)[C@H]2O)c(=S)[nH]1 [Compound 19]	7
O=c1[nH]c(=O)c2sc(=O)n([C@@H]3O[C@H](CO)[C@@H](O)[C@H]3O)c2[nH]1 [Compound 8]	5

For O=C(OC[C@H]1O[C@@H](n2c(=O)sc3c(=O)[nH]cnc32)[C@H](OC(=O)c2ccccc2)[C@@H]1OC(=O)c1ccccc1)c1ccccc1 [Compound 9] the compound record lists % Natural Killer Cell Cytotoxicity as 43
